Observed log10(IC50) values for PI3K-beta (Homo sapiens) are listed in what follows.
Kindly note that the scale is log10 and the underlying IC50 is in nM.

Exam item: Return log10(IC50) measured with PI3K-beta (Homo sapiens) given this molecule: COc1ccc2c(c1)c(/C=C1\Oc3cc(O)cc(O)c3C1=O)c(C(=O)N(C)C)n2CCCN(C)C [Example 343]
Sequence (P42338 whole entry, species assumed): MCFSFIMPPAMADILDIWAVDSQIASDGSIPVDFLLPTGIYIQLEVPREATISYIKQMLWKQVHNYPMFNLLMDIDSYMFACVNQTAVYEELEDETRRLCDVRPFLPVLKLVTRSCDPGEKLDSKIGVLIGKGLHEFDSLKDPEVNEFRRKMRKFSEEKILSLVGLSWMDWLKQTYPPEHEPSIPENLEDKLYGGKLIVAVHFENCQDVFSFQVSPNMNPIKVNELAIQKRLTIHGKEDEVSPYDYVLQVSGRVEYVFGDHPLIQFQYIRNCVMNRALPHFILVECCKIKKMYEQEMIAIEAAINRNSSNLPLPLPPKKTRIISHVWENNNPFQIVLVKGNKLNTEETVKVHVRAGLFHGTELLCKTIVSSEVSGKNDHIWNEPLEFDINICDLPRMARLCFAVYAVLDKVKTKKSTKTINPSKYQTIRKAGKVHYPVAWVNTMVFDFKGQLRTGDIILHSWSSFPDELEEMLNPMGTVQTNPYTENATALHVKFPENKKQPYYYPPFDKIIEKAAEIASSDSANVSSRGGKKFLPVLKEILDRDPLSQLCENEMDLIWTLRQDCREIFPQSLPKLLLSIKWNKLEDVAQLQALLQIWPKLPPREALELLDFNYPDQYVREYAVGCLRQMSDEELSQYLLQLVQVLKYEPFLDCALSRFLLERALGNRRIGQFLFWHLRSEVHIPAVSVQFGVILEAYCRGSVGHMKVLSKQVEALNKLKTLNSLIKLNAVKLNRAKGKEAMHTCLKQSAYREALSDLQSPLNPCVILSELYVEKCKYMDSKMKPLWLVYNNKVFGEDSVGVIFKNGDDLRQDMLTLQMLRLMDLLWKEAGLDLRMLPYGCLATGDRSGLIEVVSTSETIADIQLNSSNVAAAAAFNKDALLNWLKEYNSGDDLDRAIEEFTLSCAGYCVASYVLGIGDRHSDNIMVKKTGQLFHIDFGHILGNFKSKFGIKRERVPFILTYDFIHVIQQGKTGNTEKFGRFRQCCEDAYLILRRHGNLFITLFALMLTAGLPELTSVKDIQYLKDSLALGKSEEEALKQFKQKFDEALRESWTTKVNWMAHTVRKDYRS
Sequence (P27986 whole entry partner, species assumed): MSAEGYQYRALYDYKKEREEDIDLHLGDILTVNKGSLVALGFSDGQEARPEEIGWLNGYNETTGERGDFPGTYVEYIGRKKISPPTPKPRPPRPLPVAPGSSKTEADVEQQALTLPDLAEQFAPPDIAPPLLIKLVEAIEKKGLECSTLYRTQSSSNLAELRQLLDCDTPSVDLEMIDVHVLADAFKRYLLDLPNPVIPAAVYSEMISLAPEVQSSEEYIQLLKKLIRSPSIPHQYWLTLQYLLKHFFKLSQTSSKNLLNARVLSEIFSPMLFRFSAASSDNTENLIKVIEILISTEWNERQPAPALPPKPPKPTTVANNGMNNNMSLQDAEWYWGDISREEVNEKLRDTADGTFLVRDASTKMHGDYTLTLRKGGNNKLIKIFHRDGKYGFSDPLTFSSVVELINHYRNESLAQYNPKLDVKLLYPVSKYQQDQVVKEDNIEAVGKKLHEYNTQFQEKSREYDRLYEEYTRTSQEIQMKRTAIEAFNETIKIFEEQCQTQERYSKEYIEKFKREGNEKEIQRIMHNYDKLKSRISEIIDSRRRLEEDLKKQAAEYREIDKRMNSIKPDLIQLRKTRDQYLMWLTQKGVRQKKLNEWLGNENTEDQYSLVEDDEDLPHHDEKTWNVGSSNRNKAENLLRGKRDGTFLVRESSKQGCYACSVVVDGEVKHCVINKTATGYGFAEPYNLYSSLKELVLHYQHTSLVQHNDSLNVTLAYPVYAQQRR
Marked response: 1.85

Exam item: Return log10(IC50) measured with PI3K-beta (Homo sapiens) given this molecule: COc1ccc2c(c1)c(/C=C1\Oc3cc(O)cc(O)c3C1=O)c(C)n2CCO [Example 321]
Marked response: 1.00

Exam item: Return log10(IC50) measured with PI3K-beta (Homo sapiens) given this molecule: O=C1/C(=C/c2c(-c3ccccc3)[nH]c3ccccc23)Oc2c1ccc(O)c2O [Example 53]
Marked response: 2.12

Exam item: Return log10(IC50) measured with PI3K-beta (Homo sapiens) given this molecule: COc1ccc2c(c1)c(/C=C1\Oc3cc(O)cc(O)c3C1=O)cn2CC(=O)N(C)C [Example 318]
Marked response: 2.87

Exam item: Return log10(IC50) measured with PI3K-beta (Homo sapiens) given this molecule: COc1ccc2c(c1)c(C=C1Oc3cc(O)cc(O)c3C1=O)cn2CCCN(C)C [Example 114]
Marked response: 2.34

Exam item: Return log10(IC50) measured with PI3K-beta (Homo sapiens) given this molecule: COc1ccc2c(c1)c(/C=C1\Oc3cc(O)cc(O)c3C1=O)cn2CCO [Example 317]
Marked response: 1.81

----------
test_target: human TOR (Homo sapiens, UniProt P42345)
Construct: FLAG
method_notes: mTOR enzyme assay (DELFIA, His6-S6K substrate)
Assay type: biochemical
study_conditions: read-out: mTOR Kinase Avg. IC50
I'd be grateful if you could share measured IC50 for these entries.
Please reply with the bare figure in nM and do not write the unit itself.

Exam item: What value of IC50 has been recorded for this entry: CCn1c(C)c(/C=C2\Oc3ccc(NC(=O)Nc4ccc(C(=O)N5CCOCC5)cc4)cc3C2=O)c2cc(OC)ccc21 [Compound 686]
Marked response: 110

Exam item: What value of IC50 has been recorded for this entry: CNC(=O)Nc1ccc2c(c1)C(=O)/C(=C/c1c(-c3cnn(C)c3C)[nH]c3ccc(OC)cc13)O2 [Compound 723]
Marked response: 3

Exam item: What value of IC50 has been recorded for this entry: Cn1cc(C=C2Oc3cc(O)cc(O)c3C2=O)c2c(O)cccc21 [Example 254]
Marked response: 650

Exam item: What value of IC50 has been recorded for this entry: CNC(=O)Nc1ccc2c(c1)C(=O)/C(=C/c1c(-c3cnn(C)c3)[nH]c3c(F)cc(OC)cc13)O2 [Compound 718]
Marked response: 2

Exam item: What value of IC50 has been recorded for this entry: CNC(=O)Nc1ccc2c(c1)C(=O)/C(=C/c1c(-c3nn(C)cc3C(F)(F)F)[nH]c3ccc(OC)cc13)O2 [Compound 724]
Marked response: 20

Exam item: What value of IC50 has been recorded for this entry: Cc1c(C=C2Oc3cc(O)cc(O)c3C2=O)c2ccccc2n1C [Example 247]
Marked response: 2900

Exam item: What value of IC50 has been recorded for this entry: CCCn1c(-c2ccccc2)c(C=C2Oc3cc(O)cc(O)c3C2=O)c2ccccc21 [Example 214]
Marked response: 2550

Exam item: What value of IC50 has been recorded for this entry: COc1ccc2c(c1)c(C=C1Oc3cc(O)cc(O)c3C1=O)cn2CCCCN(C)C [Example 116]
Marked response: 1420

Exam item: What value of IC50 has been recorded for this entry: COc1ccc2c(c1)c(/C=C1\Oc3cc(O)cc(O)c3C1=O)cn2CCCN(C)C [Example 323]
Marked response: 930

Exam item: What value of IC50 has been recorded for this entry: N#Cc1cccc2[nH]cc(C=C3Oc4cc(O)cc(O)c4C3=O)c12 [Example 220]
Marked response: 4300

Exam item: What value of IC50 has been recorded for this entry: CCn1cc(/C=C2\Oc3ccc(NC(=O)Nc4ccc(C(=O)N5CCN(C)CC5)cc4)cc3C2=O)c2cc(OC)ccc21 [Compound 642]
Marked response: 2600

Exam item: What value of IC50 has been recorded for this entry: CNC(=O)Nc1ccc(-c2cccc3c2c(/C=C2\Oc4cc(O)cc(O)c4C2=O)cn3C)cc1 [Example 393]
Marked response: 23.5

Exam item: What value of IC50 has been recorded for this entry: COc1ccc2[nH]c(-c3cncnc3)c(/C=C3\Oc4cc(O)cc(O)c4C3=O)c2c1 [Example 354]
Marked response: 18

Exam item: What value of IC50 has been recorded for this entry: CNc1ccc(-c2cccc3c2c(/C=C2\Oc4cc(O)cc(O)c4C2=O)cn3C)cc1 [Example 389]
Marked response: 11.5

Exam item: What value of IC50 has been recorded for this entry: COc1cc2c(C=C3Oc4cc(O)cc(O)c4C3=O)c(C)n(C)c2cc1C [Example 185]
Marked response: 130

Exam item: What value of IC50 has been recorded for this entry: COc1ccc2c(c1)c(/C=C1\Oc3cc(O)cc(O)c3C1=O)c(C)n2CC(=O)N(C)C [Example 322]
Marked response: 23

Exam item: What value of IC50 has been recorded for this entry: CNCCn1c(-c2c(C)nn(C)c2C)c(/C=C2\Oc3ccc(NC(=O)NC)cc3C2=O)c2cc(OC)ccc21 [Compound 672]
Marked response: 27

Exam item: What value of IC50 has been recorded for this entry: COc1ccc2c(c1)c(/C=C1\Oc3ccc(NC(=O)Nc4ccc(C(=O)N5CCN(C)CC5)cc4)cc3C1=O)c(C)n2C [Compound 658]
Marked response: 2450

Exam item: What value of IC50 has been recorded for this entry: CCn1c(C)c(/C=C2\Oc3ccc(NC(=O)Nc4ccc(N(C)CCN(C)C)cc4)cc3C2=O)c2cc(OC)ccc21 [Compound 652]
Marked response: 135

Exam item: What value of IC50 has been recorded for this entry: COc1ccc2[nH]c(CN3CCN(C)CC3)c(/C=C3\Oc4cc(O)cc(O)c4C3=O)c2c1 [Example 346]
Marked response: 77

----------
test_target: PI3K-alpha (Homo sapiens, UniProt P42336)
Sequence (P42336 whole entry, species assumed): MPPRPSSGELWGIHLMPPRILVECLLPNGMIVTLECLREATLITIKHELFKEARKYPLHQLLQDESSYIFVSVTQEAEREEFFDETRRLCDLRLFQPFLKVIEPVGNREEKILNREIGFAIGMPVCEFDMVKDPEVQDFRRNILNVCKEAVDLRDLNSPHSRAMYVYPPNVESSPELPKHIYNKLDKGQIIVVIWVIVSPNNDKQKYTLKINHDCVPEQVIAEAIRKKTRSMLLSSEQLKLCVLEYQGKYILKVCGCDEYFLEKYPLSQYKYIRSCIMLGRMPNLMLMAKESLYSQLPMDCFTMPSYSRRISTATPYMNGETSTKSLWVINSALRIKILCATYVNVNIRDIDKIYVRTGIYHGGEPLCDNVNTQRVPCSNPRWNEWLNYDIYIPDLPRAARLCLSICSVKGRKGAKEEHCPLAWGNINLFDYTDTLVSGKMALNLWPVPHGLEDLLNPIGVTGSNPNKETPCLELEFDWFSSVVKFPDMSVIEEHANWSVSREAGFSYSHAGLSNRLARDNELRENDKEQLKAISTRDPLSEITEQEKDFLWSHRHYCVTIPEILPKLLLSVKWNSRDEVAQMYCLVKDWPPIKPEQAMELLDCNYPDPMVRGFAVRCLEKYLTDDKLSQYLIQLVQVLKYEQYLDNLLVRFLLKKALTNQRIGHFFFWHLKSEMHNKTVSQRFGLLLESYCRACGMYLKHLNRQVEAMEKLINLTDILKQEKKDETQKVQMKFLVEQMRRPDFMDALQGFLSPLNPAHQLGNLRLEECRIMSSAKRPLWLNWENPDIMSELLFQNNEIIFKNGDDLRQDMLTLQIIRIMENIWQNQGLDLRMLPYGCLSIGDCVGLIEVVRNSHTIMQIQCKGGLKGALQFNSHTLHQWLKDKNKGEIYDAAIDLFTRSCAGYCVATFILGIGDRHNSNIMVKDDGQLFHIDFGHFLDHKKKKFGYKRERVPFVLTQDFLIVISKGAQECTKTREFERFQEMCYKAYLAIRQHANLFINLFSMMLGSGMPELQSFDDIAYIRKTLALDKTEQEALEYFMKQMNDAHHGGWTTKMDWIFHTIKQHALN
Sequence (P27986 whole entry partner, species assumed): as the sequence (P27986 whole entry partner, species assumed) above
method_notes: PI3K-alpha fluorescence polarization assay
Assay type: biochemical
study_conditions: read-out: PI3Kα Avg. IC50
assay_endpoint: IC50

Exam item: What value of IC50 has been recorded for this entry: Cn1c(-c2ccccc2)c(C=C2Oc3ccccc3C2=O)c2ccccc21
Marked response: > 10000 nM

Exam item: What value of IC50 has been recorded for this entry: CC(=O)Nc1ccc2[nH]c(C)c(C=C3Oc4cc(O)cc(O)c4C3=O)c2c1
Marked response: 9500 nM

Exam item: What value of IC50 has been recorded for this entry: COc1ccc2c(c1)c(/C=C1\Oc3ccc(NC(=O)Nc4cccnc4)cc3C1=O)c(C)n2CCN1CCN(C)CC1 [Compound 632]
Marked response: 1.9 nM

Exam item: What value of IC50 has been recorded for this entry: COc1cc(F)c2[nH]c(-c3c(C)nn(C)c3C)c(/C=C3\Oc4ccc(NC(=O)NCCN(C)C)cc4C3=O)c2c1
Marked response: 0.8 nM

----------
test_target: human TOR (Homo sapiens)
Construct: FLAG
method_notes: mTOR enzyme assay (DELFIA, His6-S6K substrate)
Assay type: biochemical
study_conditions: read-out: mTOR Kinase Avg. IC50
pIC50: −log10 of the molar value.
assay_endpoint: pIC50

Exam item: What value of pIC50 has been recorded for this entry: Cn1cc(/C=C2\Oc3cccc(O)c3C2=O)c2ccccc21 [Example 441]
Marked response: < 4.70

Exam item: What value of pIC50 has been recorded for this entry: COc1ccc2c(c1)c(/C=C1\Oc3cc(O)cc(O)c3C1=O)c(C)n2CCN1CCC(O)C1 (centres unmarked) [Example 327]
Marked response: > 7.52

Exam item: What value of pIC50 has been recorded for this entry: COc1ccc2c(c1)c(/C=C1\Oc3cc(O)cc(O)c3C1=O)c(C1CC1)n2CCn1ccnc1 [Example 334]
Marked response: > 7.77

Exam item: What value of pIC50 has been recorded for this entry: COc1ccc2[nH]c(C(=O)N3CCN(C)CC3)c(/C=C3\Oc4cc(O)cc(O)c4C3=O)c2c1 [Example 331]
Marked response: 7.31

Exam item: What value of pIC50 has been recorded for this entry: CNC(=O)Nc1ccc2c(c1)O/C(=C\c1cn(CCCN(C)C)c3ccc(OC)cc13)C2=O [Example 406]
Marked response: < 4.70

Exam item: What value of pIC50 has been recorded for this entry: Cn1cc(C=C2Oc3cc(O)cc(O)c3C2=O)c2cc(Br)ccc21 [Example 248]
Marked response: < 4.70

Exam item: What value of pIC50 has been recorded for this entry: COc1ccc2c(c1)c(/C=C1\Oc3cc(Br)ccc3C1=O)cn2CCCN(C)C [Example 413]
Marked response: < 4.70

Exam item: What value of pIC50 has been recorded for this entry: Cn1c(-c2ccccc2)c(C=C2Oc3cc(O)cc(O)c3C2=O)c2ccccc21 [Example 15]
Marked response: 7.05
